Source listed as the supplement of paper PMC10567573.

B1: STK38L (parent)
chain: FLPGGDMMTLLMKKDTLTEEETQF

Variants of: B1
EXPERIMENT_NOTES: protein stability index of a GFP-peptide fusion (GPS, HEK-293T) (PSI 1-6); higher = more stable;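 note: lentivirally expressed fusions sorted by FACS into six bins by GFP to DsRed ratio, PSI derived from sequencing read proportions per bin multiplied by bin number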
TEST_SETTINGS: c terminus: a fixed tail appended
Would you mind labelling by protein stability index? At or over 3 is Satisfied, under is Not satisfied.

variant_identifier=T9M category_label=Satisfied
variant_identifier=P3H category_label="Not satisfied"
variant_identifier=T9C category_label="Not satisfied"

Switching to the query record.
Q. Reported protein stability index reaches at least 3 for `T18S` ?
A. Not satisfied
